Experimental system: Rabies virus glycoprotein G, Challenge Virus Standard (CVS)-11 strain (Rabies virus, strain CVS-11 (genotype 1 Lyssavirus)) (UniProt O92284)
Sequence (O92284 20-524 limits assumed): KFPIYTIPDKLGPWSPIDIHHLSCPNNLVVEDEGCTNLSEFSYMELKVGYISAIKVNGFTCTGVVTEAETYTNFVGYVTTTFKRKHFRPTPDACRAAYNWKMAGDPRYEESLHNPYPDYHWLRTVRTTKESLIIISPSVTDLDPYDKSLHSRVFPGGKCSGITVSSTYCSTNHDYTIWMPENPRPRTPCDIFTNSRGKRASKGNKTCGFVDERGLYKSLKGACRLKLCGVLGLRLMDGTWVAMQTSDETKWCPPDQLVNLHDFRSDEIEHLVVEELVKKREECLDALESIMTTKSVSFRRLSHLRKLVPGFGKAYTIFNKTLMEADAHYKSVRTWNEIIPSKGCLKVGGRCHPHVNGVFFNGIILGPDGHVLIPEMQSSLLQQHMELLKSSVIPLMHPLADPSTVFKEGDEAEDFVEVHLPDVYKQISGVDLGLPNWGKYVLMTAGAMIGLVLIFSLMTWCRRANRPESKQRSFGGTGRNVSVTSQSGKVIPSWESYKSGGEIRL
Assay comment: cell-based or functional assay
Would you kindly list CVS-11 neutralizing antibody titer (RFFIT), IU/µM for each of these binders?
Write the answer as a number in IU/µM, unit excluded.

Look up CVS-11 neutralizing antibody titer (RFFIT), IU/µM for this binder: LG213E6 (VHH) VHH: EVQLVESGGGLVQAGASLRLSCAASGSTLSRYGVGWFRQAPGKERELVASVDWSGSRTYYADSVKGRFTISRDNAKNTGYLQMNSLKPDDTAVYYCAADSSVVPGIEKYDDWGLGTQVTVSS
2.54

Follow-up entry: LG213B7 (VHH) VHH: EVQLVESGGGLVQAGGSLRLSCTVSGDTFDNSAAGWYRATSETQRELVARIRSSGSTNYADSVKGRFTVSRDNAKNTVYLQMNSLKPEDTAVYYCNVVSYGEYFWGKGTLVTVSS
0.11

Follow-up entry: LG214C10 (VHH) VHH: EVQLVESGGGLVQPGGSLRLSCAASGFIFGSYDMSWVRQAPGKGPEWVSGINSGGGSTGYADSVKGRFTISRDNAKNTLYLQMNSLKPEDTAVYYCSTNLYPTTDDVWGQGTQVTVSS
0.16
